Sourced from paper PMC6302903

- Tested system: TREK-1/AAK M4-C (Mus musculus, UniProt O88454+P97438)
- Construct: Y272 (TREK-1/AAK M4-C); chimera built by Gibson assembly
- Sequence (P97438+O88454 with tags, fused parts or gaps P97438:V273L/P97438:V280F/P97438:A287S/P97438:S290T/P97438:M291T/P97438:D294N): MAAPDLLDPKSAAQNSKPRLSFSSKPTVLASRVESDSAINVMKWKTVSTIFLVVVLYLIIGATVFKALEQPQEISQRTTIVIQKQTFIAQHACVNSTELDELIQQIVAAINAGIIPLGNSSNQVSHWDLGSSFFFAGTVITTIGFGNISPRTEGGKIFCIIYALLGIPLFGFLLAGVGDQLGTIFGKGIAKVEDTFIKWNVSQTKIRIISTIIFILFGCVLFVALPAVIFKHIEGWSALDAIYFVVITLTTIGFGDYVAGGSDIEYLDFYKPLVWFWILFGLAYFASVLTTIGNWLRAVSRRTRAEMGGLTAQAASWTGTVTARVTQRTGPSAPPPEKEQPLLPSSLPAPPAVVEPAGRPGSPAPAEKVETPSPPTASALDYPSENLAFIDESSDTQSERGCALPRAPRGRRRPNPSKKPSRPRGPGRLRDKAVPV
- Protocol: TEVC of chimera TREK-1/AAK M4-C
- Test settings: Xenopus oocytes
pEC50: −log10 of the molar value.

| Sample smiles | pEC50 |
| --- | --- |
| CS(=O)(=O)Nc1ccc(C(=O)NCc2ccc(Cl)cc2Cl)cc1 | 5.70 |
| CC1(C)c2cc(Cl)ccc2N(CCc2nn[nH]n2)c2ccc(Cl)cc21 | 4.38 |
| c1ccc(-c2nnn[nH]2)c(Nc2cccc3c2CCCC3)c1 | 4.72 |
